test system: MCF7; assay: Cytotoxicity against human MCF7 cells assessed as growth inhibition after 72 hrs by MTT assay; type: functional, cell-based; conditions: MCF7, 72 h
pIC50: −log10 of the molar value.
Quick rule for you: pIC50 at 6 or higher means Fulfilled, lower means Not fulfilled.

1. COC(=O)n1cnc2c(-c3ocnc3-c3cc(OC)c(OC)c(OC)c3)ccc(OC)c21
Fulfilled
2. COc1cc(-c2ncoc2-c2ccc(OC)c3ncn(C)c23)cc(OC)c1OC
Fulfilled
3. COc1cc(-c2ncoc2-c2ccc(OC)c3ncn(CC(N)=O)c23)cc(OC)c1OC
Not fulfilled
4. COc1cc(-c2ncoc2-c2ccc(OC)c3c2ncn3CCCO)cc(OC)c1OC
Not fulfilled
5. COC(=O)c1sccc1S(=O)(=O)n1cnc2c(-c3ocnc3-c3cc(OC)c(OC)c(OC)c3)ccc(OC)c21
Fulfilled
6. COc1cc(-c2ncoc2-c2ccc(OC)c3c2ncn3CC#N)cc(OC)c1OC
Fulfilled
7. COc1cc(-c2ncoc2-c2ccc(OC)c3c2ncn3CCO)cc(OC)c1OC
Fulfilled
8. CCOC(=O)Cn1cnc2c(OC)ccc(-c3ocnc3-c3cc(OC)c(OC)c(OC)c3)c21
Fulfilled
9. COc1ccc(/C=C\c2cc(OC)c(OC)c(OC)c2)cc1O
Fulfilled
10. COc1cc(-c2ncoc2-c2ccc(OC)c3c2ncn3CC(N)=O)cc(OC)c1OC
Not fulfilled
11. COc1cc(-c2ncoc2-c2ccc(OC)c3ncn(CC#N)c23)cc(OC)c1OC
Not fulfilled
12. COc1cc(-c2ncoc2-c2ccc(OC)c3[nH]cnc23)cc(OC)c1OC
Fulfilled
13. CC[C@]1(O)C[C@H]2CN(CCc3c([nH]c4ccccc34)[C@@](C(=O)OC)(c3cc4c(cc3OC)N(C=O)[C@H]3[C@@](O)(C(=O)OC)[C@H](OC(C)=O)[C@]5(CC)C=CCN6CC[C@]43[C@@H]65)C2)C1
Fulfilled
14. COc1cc(-c2ncoc2-c2ccc(OC)c3c2ncn3CC(=O)O)cc(OC)c1OC
Not fulfilled
15. COc1cc(-c2ncoc2-c2ccc(OC)c3ncn(CCCO)c23)cc(OC)c1OC
Fulfilled
16. COc1cc(-c2ncoc2-c2ccc(OC)c3c2ncn3C)cc(OC)c1OC
Fulfilled
17. COC(=O)n1cnc2c(OC)ccc(-c3ocnc3-c3cc(OC)c(OC)c(OC)c3)c21
Fulfilled
18. COc1cc(-c2ncoc2-c2ccc(OC)c3ncn(CC(=O)O)c23)cc(OC)c1OC
Not fulfilled
19. COc1cc(-c2ncoc2-c2ccc(OC)c3ncn(CCO)c23)cc(OC)c1OC
Fulfilled

###

test system: HT-29; test: Cytotoxicity against human HT-29 cells assessed as growth inhibition after 72 hrs by MTT assay; format: functional, cell-based; conditions: HT-29, 72 h
Please assign label 0 whenever IC50 is at or above 200 nM, and label 1 whenever it is below.

1. COc1cc(-c2ncoc2-c2ccc(OC)c3c2ncn3CC(N)=O)cc(OC)c1OC
label 0
2. COc1cc(-c2ncoc2-c2ccc(OC)c3c2ncn3CCCO)cc(OC)c1OC
label 0
3. COc1cc(-c2ncoc2-c2ccc(OC)c3ncn(CC(=O)O)c23)cc(OC)c1OC
label 0
4. COc1cc(-c2ncoc2-c2ccc(OC)c3c2ncn3CC(=O)O)cc(OC)c1OC
label 0
5. COC(=O)c1sccc1S(=O)(=O)n1cnc2c(-c3ocnc3-c3cc(OC)c(OC)c(OC)c3)ccc(OC)c21
label 1
6. COc1cc(-c2ncoc2-c2ccc(OC)c3c2ncn3CC#N)cc(OC)c1OC
label 1
7. COc1cc(-c2ncoc2-c2ccc(OC)c3c2ncn3C)cc(OC)c1OC
label 1
8. COc1cc(-c2ncoc2-c2ccc(OC)c3ncn(CC(N)=O)c23)cc(OC)c1OC
label 0
9. COc1cc(-c2ncoc2-c2ccc(OC)c3ncn(CCO)c23)cc(OC)c1OC
label 1
10. CCOC(=O)Cn1cnc2c(OC)ccc(-c3ocnc3-c3cc(OC)c(OC)c(OC)c3)c21
label 0

###

target: Tubulin; experiment: Inhibition of tubulin (unknown origin) polymerization measured for 60 mins; type: protein-complex assay, Homo sapiens
QUANTITY_KIND: IC50 (nM)

1) COc1cc(-c2ncoc2-c2ccc(OC)c3[nH]cnc23)cc(OC)c1OC
390

###

test system: HT-29; assay: Cytotoxicity against human HT-29 cells assessed as growth inhibition after 72 hrs by MTT assay; assay type: functional, cell-based; settings: HT-29, 72 h
IC50 reference
QUANTITY_KIND: IC50

1) COC(=O)n1cnc2c(-c3ocnc3-c3cc(OC)c(OC)c(OC)c3)ccc(OC)c21
11 nM
2) COc1cc(-c2ncoc2-c2ccc(OC)c3ncn(C)c23)cc(OC)c1OC
52 nM
3) COc1cc(-c2ncoc2-c2ccc(OC)c3ncn(CC#N)c23)cc(OC)c1OC
1600 nM
4) CCOC(=O)Cn1cnc2c(-c3ocnc3-c3cc(OC)c(OC)c(OC)c3)ccc(OC)c21
> 500 nM
5) COc1cc(-c2ncoc2-c2ccc(OC)c3[nH]cnc23)cc(OC)c1OC
8.4 nM
6) COc1cc(-c2ncoc2-c2ccc(OC)c3c2ncn3CCO)cc(OC)c1OC
170 nM
7) CC[C@]1(O)C[C@H]2CN(CCc3c([nH]c4ccccc34)[C@@](C(=O)OC)(c3cc4c(cc3OC)N(C=O)[C@H]3[C@@](O)(C(=O)OC)[C@H](OC(C)=O)[C@]5(CC)C=CCN6CC[C@]43[C@@H]65)C2)C1
12 nM
8) COc1cc(-c2ncoc2-c2ccc(OC)c3ncn(CCCO)c23)cc(OC)c1OC
290 nM
9) COC(=O)n1cnc2c(OC)ccc(-c3ocnc3-c3cc(OC)c(OC)c(OC)c3)c21
11 nM

###

test system: MX1; test: Cytotoxicity against taxol-resistant human MX1 cells assessed as growth inhibition after 72 hrs by MTT assay; format: functional, cell-based; conditions: MX1, 72 h
log10(IC50) reference
QUANTITY_KIND: log10(IC50) (log10 of the value in nM)

1. COC(=O)n1cnc2c(-c3ocnc3-c3cc(OC)c(OC)c(OC)c3)ccc(OC)c21
3.69
2. COc1cc(-c2ncoc2-c2ccc(OC)c3c2ncn3C)cc(OC)c1OC
4.11
3. COc1cc(-c2ncoc2-c2ccc(OC)c3c2ncn3CCCO)cc(OC)c1OC
4.32
4. COc1cc(-c2ncoc2-c2ccc(OC)c3[nH]cnc23)cc(OC)c1OC
2.40
5. COc1ccc(/C=C\c2cc(OC)c(OC)c(OC)c2)cc1O
1.85
6. COC(=O)n1cnc2c(OC)ccc(-c3ocnc3-c3cc(OC)c(OC)c(OC)c3)c21
2.75
7. CC[C@]1(O)C[C@H]2CN(CCc3c([nH]c4ccccc34)[C@@](C(=O)OC)(c3cc4c(cc3OC)N(C=O)[C@H]3[C@@](O)(C(=O)OC)[C@H](OC(C)=O)[C@]5(CC)C=CCN6CC[C@]43[C@@H]65)C2)C1
1.88
